# TESTED_TARGET: human IR (hIR) (Homo sapiens, UniProt P06213)
# Construct: containing amino acid residues 979-1382 of human IR
# Sequence (P06213 979-1382): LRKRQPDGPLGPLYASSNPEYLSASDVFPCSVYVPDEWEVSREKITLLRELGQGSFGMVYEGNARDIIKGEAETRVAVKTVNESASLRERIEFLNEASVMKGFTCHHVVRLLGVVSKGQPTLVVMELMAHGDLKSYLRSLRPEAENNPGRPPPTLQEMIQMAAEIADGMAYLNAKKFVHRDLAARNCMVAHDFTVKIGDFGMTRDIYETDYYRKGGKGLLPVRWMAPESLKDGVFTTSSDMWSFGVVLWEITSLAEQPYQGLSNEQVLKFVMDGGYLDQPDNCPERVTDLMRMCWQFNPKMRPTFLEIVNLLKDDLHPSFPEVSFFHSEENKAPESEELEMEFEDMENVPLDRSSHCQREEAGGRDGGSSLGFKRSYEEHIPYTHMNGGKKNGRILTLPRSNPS
# EXPERIMENT_SUMMARY: TR-FRET kinase assay of purified hIR
# ASSAY_SETUP: activated hIR 0.5 nM, 10 μM ATP, values given as pIC50 category
pIC50: −log10 of the molar value.
Form field: pIC50 (one value per entry).

# SMILES_RECORD, TESTED_TARGET, pIC50
data = [
    ("COc1ccc(OC[C@@H](O)CN2CCCC2)cc1Nc1nc(Nc2cc(F)c(F)cc2C(N)=O)c2cc[nH]c2n1", "human IR (hIR) (Homo sapiens, UniProt P06213)", "9.00 to 9.60"),
    ("CCCN(C)CC(=O)N1CCc2cc(OC)c(Nc3nc(Nc4cccc(F)c4C(=O)NC)c4cc[nH]c4n3)cc21", "human IR (hIR) (Homo sapiens, UniProt P06213)", "8.40 to 8.90"),
    ("CNC(=O)c1c(F)cccc1Nc1nc(Nc2ccc3c(c2)N(C(=O)CN(C)C)CC3)nc2[nH]ccc12", "human IR (hIR) (Homo sapiens, UniProt P06213)", "6.80 to 8.30"),
    ("COc1cc(N2CCC(N3CC[C@@H](F)C3)CC2)ccc1Nc1nc(Nc2cc(F)ccc2C(N)=O)c2cc[nH]c2n1", "human IR (hIR) (Homo sapiens, UniProt P06213)", "9.00 to 9.60"),
]

====

# TESTED_TARGET: NIH-3T3 cells overexpressing human IGF-1R (Homo sapiens, UniProt P08069)
# Sequence (P08069 31-1367): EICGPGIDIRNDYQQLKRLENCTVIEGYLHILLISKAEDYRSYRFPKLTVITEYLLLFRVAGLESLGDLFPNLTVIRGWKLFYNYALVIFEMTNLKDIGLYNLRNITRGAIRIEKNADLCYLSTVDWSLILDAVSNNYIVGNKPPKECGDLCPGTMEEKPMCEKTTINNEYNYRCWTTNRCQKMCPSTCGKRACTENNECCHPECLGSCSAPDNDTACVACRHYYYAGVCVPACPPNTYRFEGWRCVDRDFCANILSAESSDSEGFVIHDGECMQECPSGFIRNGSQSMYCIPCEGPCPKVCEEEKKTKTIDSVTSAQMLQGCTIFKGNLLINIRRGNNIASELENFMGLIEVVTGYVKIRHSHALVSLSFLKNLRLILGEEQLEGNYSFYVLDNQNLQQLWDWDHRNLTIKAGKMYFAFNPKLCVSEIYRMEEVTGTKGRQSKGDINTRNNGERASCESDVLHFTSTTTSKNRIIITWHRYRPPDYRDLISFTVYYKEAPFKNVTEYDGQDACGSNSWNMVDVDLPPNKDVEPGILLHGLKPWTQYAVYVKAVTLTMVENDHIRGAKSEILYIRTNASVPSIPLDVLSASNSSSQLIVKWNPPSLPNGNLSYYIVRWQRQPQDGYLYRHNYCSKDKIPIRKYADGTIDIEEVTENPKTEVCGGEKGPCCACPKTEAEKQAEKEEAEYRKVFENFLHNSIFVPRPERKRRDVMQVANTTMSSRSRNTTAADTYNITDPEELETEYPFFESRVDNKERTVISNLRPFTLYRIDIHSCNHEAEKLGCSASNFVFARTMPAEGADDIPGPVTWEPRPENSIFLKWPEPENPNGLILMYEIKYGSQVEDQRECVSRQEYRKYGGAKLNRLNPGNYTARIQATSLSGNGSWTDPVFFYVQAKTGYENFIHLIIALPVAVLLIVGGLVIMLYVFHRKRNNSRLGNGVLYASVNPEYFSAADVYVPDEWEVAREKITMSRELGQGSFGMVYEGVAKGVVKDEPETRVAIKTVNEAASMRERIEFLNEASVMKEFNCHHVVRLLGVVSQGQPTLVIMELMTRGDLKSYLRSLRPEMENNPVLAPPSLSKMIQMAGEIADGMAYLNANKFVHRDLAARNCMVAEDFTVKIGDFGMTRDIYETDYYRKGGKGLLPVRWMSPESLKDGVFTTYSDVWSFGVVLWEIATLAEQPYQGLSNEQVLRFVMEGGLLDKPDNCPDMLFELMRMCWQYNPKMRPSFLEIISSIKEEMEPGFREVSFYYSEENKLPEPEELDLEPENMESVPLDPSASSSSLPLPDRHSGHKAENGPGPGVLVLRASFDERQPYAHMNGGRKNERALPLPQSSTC
# EXPERIMENT_SUMMARY: IGF-1R cellular autophosphorylation (DELFIA)
Form field: IC50 (one value per entry).
MEASURE_NAME: IC50

# SMILES_RECORD, MEASURE_NAME, RESULT
data = [
    ("COc1cc(N2CCCN(C)CC2)ccc1Nc1nc(Nc2cccc(F)c2C(N)=O)c2cc[nH]c2n1", "IC50", "100 to 500 nM"),
    ("Cc1ccc(NC(=O)CN(C)C)cc1Nc1nc(Nc2cc(Cl)ccc2C(N)=O)c2cc[nH]c2n1", "IC50", "> 500 nM"),
    ("COc1cc(N2CCOC[C@@H]2C)ccc1Nc1nc(Nc2cc(F)c(F)cc2C(N)=O)c2cc[nH]c2n1", "IC50", "< 100 nM"),
    ("CCN(CC)CC(=O)N1CCc2cc(OC)c(Nc3nc(Nc4cccc(F)c4C(=O)NC)c4cc[nH]c4n3)cc21", "IC50", "100 to 500 nM"),
    ("COc1ccc(OC[C@@H](O)CN2CCCC2)cc1Nc1nc(Nc2cc(F)c(F)cc2C(N)=O)c2cc[nH]c2n1", "IC50", "100 to 500 nM"),
    ("COc1cc(N2CCN(C(C)C)CC2)c(OC)cc1Nc1nc(Nc2cc(F)ccc2C(N)=O)c2cc[nH]c2n1", "IC50", "< 100 nM"),
    ("CNC(=O)c1c(F)cc(Cl)cc1Nc1nc(Nc2cc3c(cc2OC)CCN3C(=O)CN2CCCC2)nc2[nH]ccc12", "IC50", "100 to 500 nM"),
    ("COc1cc2c(cc1Nc1nc(Nc3cc(F)cc(F)c3C(N)=O)c3cc[nH]c3n1)N(C(=O)CN(C)C)CC2", "IC50", "< 100 nM"),
    ("COc1cc(N2CCOC[C@@H]2C)ccc1Nc1nc(Nc2ccc(F)cc2C(N)=O)c2cc[nH]c2n1", "IC50", "< 100 nM"),
    ("COc1cc2c(cc1Nc1nc(Nc3cc(Cl)cc(F)c3C(N)=O)c3cc[nH]c3n1)N(C(=O)CN1CCCC1)CC2", "IC50", "< 100 nM"),
]

Source listed as patent US7981903B2.
